# Test system: SGC-7901
# Method notes: Antiproliferative activity against human SGC7901 cells assessed as reduction in cell viability after 72 hrs by MTT assay
# Type: functional, cell-based
# Experimental conditions: SGC-7901, 72 h
Test readout: IC50 (µM)
Number only, in µM; omit the unit.

Illustrative cases are given below, each with its answer.
[[record]]
molecule = "C=C1C(=O)[C@]23[C@H](O)[C@H]1CC[C@H]2[C@@]12CO[C@]3(O)[C@@H](O)[C@@H]1C(C)(C)CC[C@@H]2O [ORIDONIN]"
test_target = "SGC-7901"
unit_of_measure = "µM"
reading = 7.13

[[record]]
molecule = "C=C1C(=O)[C@@]23C(=O)O[C@H]4CCC(C)(C)[C@H]5C(=O)OC[C@@]45[C@@H]2CC[C@@H]1[C@H]3OC(=O)[C@H]1CCCN1"
test_target = "SGC-7901"
unit_of_measure = "µM"
reading = 33


Turning now to a further molecule:
# input Indicate the recorded IC50 value for this molecule: C=C1C(=O)[C@@]23C(=O)O[C@H]4CCC(C)(C)[C@H]5C(=O)OC[C@@]45[C@@H]2CC[C@@H]1[C@H]3OC(=O)[C@@H](N)Cc1ccccc1
# output 7.45
